List of fold change of affinity values.
- target.or.test.system: T1, Human CD137 ECD (human)
- T1 construct: entry includes C-terminal His-tag and biotin acceptor peptide; also called human CD137 extracellular domain; 4-1BB
- T1 sequence (chain, as listed by the source limits assumed): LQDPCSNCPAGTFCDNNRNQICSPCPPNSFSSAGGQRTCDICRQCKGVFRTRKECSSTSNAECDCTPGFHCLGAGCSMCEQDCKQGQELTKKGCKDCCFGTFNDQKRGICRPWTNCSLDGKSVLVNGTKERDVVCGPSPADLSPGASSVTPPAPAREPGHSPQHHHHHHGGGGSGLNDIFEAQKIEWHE
- test.summary: Biacore SPR, vs parent H183/L072
Give the quantity in fold, number only.

Worked examples, 2 binders total:
1. H183/L072 VL S93D (antibody, name in Kabat numbering, V domains shown, Dual-Ig) VH: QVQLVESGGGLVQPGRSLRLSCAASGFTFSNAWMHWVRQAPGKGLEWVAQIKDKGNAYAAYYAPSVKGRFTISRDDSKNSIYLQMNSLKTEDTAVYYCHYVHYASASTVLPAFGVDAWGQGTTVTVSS VL: DIVMTQSPLSLPVTPGEPASISCQASQELVHMNRNTYLHWYQQKPGQAPRLLIYKVSNRFPGVPDRFSGSGSGTDFTLKISRVEAEDVGVYYCAQGTDVPFTFGQGTKLEIK :: 0.7
2. H183/L072 VL N53P (antibody, name in Kabat numbering, V domains shown, Dual-Ig) VH: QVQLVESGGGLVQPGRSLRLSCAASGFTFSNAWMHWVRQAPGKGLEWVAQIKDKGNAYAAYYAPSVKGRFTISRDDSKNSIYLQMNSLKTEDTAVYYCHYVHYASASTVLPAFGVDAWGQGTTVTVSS VL: DIVMTQSPLSLPVTPGEPASISCQASQELVHMNRNTYLHWYQQKPGQAPRLLIYKVSPRFPGVPDRFSGSGSGTDFTLKISRVEAEDVGVYYCAQGTSVPFTFGQGTKLEIK :: 0

# input Output measured fold change of affinity for this item: H183/L072 VL S52F (antibody, name in Kabat numbering, V domains shown, Dual-Ig) VH: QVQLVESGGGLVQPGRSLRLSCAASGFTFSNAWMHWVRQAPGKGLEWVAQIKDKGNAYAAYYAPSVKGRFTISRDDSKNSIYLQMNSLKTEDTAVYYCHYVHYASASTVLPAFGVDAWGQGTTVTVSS VL: DIVMTQSPLSLPVTPGEPASISCQASQELVHMNRNTYLHWYQQKPGQAPRLLIYKVFNRFPGVPDRFSGSGSGTDFTLKISRVEAEDVGVYYCAQGTSVPFTFGQGTKLEIK
# output 1.2
